- Tested on: SK-OV-3
- experiment: NCI tumour cell line growth inhibition, 48 h
Calls of active or inactive are those of the source. No stated cut-off is given here; in the data, active = GI50 up to about 1.1 µM and inactive = higher. Non-standard residues stand in square brackets, D forms with d. Residues, ends and D or L forms follow the SMILES beside them. *: point of attachment. Ac5c = NC1(C(=O)O)CCCC1; Cbz = O=C(OCc1ccccc1)*; Boc = CC(C)(C)OC(=O)*; tBu = CC(C)(C)*
Each entry below carries its recorded GI50.

So, COC(=O)C1(NC(=O)C(Cc2ccccc2)NC(=O)C(NC(=O)C(CCCCNC(=O)OC(C)(C)C)NC(=O)C(Cc2c[nH]c3ccccc23)NC(=O)C(Cc2ccccc2)NC(=O)OCc2ccccc2)C(C)OC(C)(C)C)CCCC1 (centres undefined) (Cbz-FWK(Boc)T(tBu)F[Ac5c]-OMe; configuration not given here) ? Its GI50 was 93.3 µM (inactive)

Kindly consider the entry below.
Please fill in: GI50 reported for OCC(O)C(OC1OC(CO)C(O)C(O)C1O)c1nn(-c2ccc(Cl)cc2)c2nc3cc(Cl)ccc3nc12 (centres undefined) = > 100 µM (inactive)

====

# maps each entry to its GI50
- Tested on: SK-MEL-28
- experiment: NCI tumour cell line growth inhibition, 48 h
Activity calls are given as the source filed them. Cut-off read from the data, not from the text of the source: active = GI50 up to about 1.1 µM and inactive = higher.

Previously resolved entries follow.
Item CC[P+](C)(Cc1ccccc1)c1ccccc1 (stereo unspecified) was tested on SK-MEL-28; the reported GI50 is > 100 µM (inactive)

Given the molecule CC(=O)C1CC2(c3ccccc3)C(=O)c3ccccc3N2O1 (stereo unspecified) and test system SK-MEL-28, the measured GI50 is > 100 µM (inactive)

Tested on SK-MEL-28, the item Cc1ccc(-c2cs/c(=N\c3ccccc3)n2NC(=O)c2ccncc2)cc1 showed GI50 equal to 36.6 µM (inactive)

# GI50 measured on SK-MEL-28 for item c1cc2c(s1)-c1sccc1C21OCCO1 = > 100 µM (inactive)

Let me check: Nc1ccc(Nc2nc(F)nc(-c3c4ccccc4c4n3CCS4)n2)cc1 , system SK-MEL-28, measured GI50 is 15.8 µM (inactive)

Okay, next one:
Record Cn1c(CO)ccc1-c1ccc(-c2ccc(CO)[se]2)[se]1 ; system SK-MEL-28; GI50 = 17 µM (inactive)

====

- Tested on: EKVX
- experiment: NCI tumour cell line growth inhibition, 48 h
Activity calls are given as the source filed them. Cut-off read from the data, not from the text of the source: active = GI50 up to about 1.1 µM and inactive = higher.
The reply should be one of these categories: TRUE = active, FALSE = inactive

Known results for compounds:
Could you please tell me the result logged for O=[N+]([O-])c1cnc(N(CCO)CCO)s1 in this assay?
FALSE

Record lookup: outcome of this test for Cc1ccc(CN2CCN(Cc3ccc(C)o3)C(C)C2)o1 (centres undefined) ?
FALSE

Would you mind telling me which call this test gave Cc1cc(Cl)ccc1NC1=NC(=O)C(CC(=O)Nc2ccc([N+](=O)[O-])cc2[N+](=O)[O-])S1 (centres undefined) ?
FALSE

Recorded call for CCCCC(C)/C=C/C(O)=C1\C(=O)O/C(=C\C(=O)O)C1=O (centres undefined) ?
FALSE

Others:
Which result was noted for this compound in the test: CCOC(=O)C1=NNC(C(=O)c2ccccc2)C1c1ccccc1 (centres undefined)
FALSE

====

- Test system: LXFL 529
- experiment: NCI tumour cell line growth inhibition, 48 h
Calls of active or inactive are those of the source. Rule as the data show it: active = GI50 up to about 1.1 µM and inactive = higher.
The reply should name one outcome from y (active), n (inactive)

Some entries whose results are on file:
Assay outcome for OC(c1ccccc1Br)(c1ccccc1Br)C(F)(F)F : what was it?
n

Which outcome was entered for the compound COC1C2c3cc4c(cc3CC(C#N)(c3ccccc32)N1C(=O)c1ccccc1)OCO4 (stereo unspecified) in this test?
n

Hey, what did the test say about CC(C)N(C(=O)C12C3C4C1C1C2C3C41C(=O)N(C(C)C)C(C)C)C(C)C (stereo unspecified) ?
n

Consider now this further compound.
Test call for this compound, please: COc1ccc(CC(C#N)c2cc(OC)c(OC)c(OC)c2)cc1 (stereo unspecified)
y
